- Tested on: MDA-MB-468 breast
- Assay Name: NCI-60 one-dose screen, 48 h
- Protocol Conditions: 10 µM unless noted
The panel holds about 83,000 compounds, 20% with a hit somewhere; the sample as a whole holds those more often. Activity calls are given as the source filed them. The calls were made as follows: active = growth percent below 10; inactive = the rest.
Labels: active, inactive

>>> discrete_label("COc1cc(Nc2ccnc(N3CCN(c4ccnc5cc(Cl)ccc45)CC3)n2)cc(OC)c1")
"active"
>>> discrete_label("Fc1ccc(Nc2nc3nonc3nc2Nc2ccc(F)cc2)cc1")
"active"
>>> discrete_label("CC(C)(C)[Si](C)(C)OC1[C@@H](O[Si](C)(C)C(C)(C)C)[C@@H](CNC(=O)NC(=O)C(F)(F)F)O[C@H]1n1cnc2c(NC(=O)Nc3ccccc3)ncnc21 (some centres undefined)")
"inactive"
>>> discrete_label("C/C(Cc1ccc(Cl)cc1)=C(\\c1ccc(O)cc1)c1ccc(Cl)cc1")
"inactive"

###

- System: HT29 colon
- Assay Name: NCI-60 one-dose screen, 48 h
- Protocol Conditions: 10 µM
The panel holds about 83,000 compounds, 20% with a hit somewhere; the sample as a whole holds those more often. The source made the active and inactive calls. Rule for the calls: active = growth percent below 10; inactive = the rest.
Labels: 1 = active, -1 = inactive

>>> discrete_label("O=C(CN1CCN(c2ncnc3c2cnn3-c2ccccc2)CC1)Nc1ccc(Cl)cc1")
-1
>>> discrete_label("COc1ccc(NCc2cn(-c3ccc(C(=O)O)cc3)nc2-c2ccc(F)cc2)cc1C(F)(F)F")
-1
>>> discrete_label("C#C[C@]1(O)CC[C@H]2[C@@H]3CC=C4c5sc(Nc6ccc(N(C)C)cc6)nc5CC[C@]4(C)[C@H]3CC[C@@]21C")
1
>>> discrete_label("CCn1c(SCC(=O)Nc2ccc(-c3nc4ccccc4[nH]3)cc2)nc2ccccc2c1=O")
1
>>> discrete_label("COc1ccc(C(=O)COc2ccc(NC(=O)Nc3ccccc3)cc2)cc1")
-1
>>> discrete_label("COc1ccc(C(=O)COc2ccc(NC(=O)Nc3ccc(Cl)c(C(F)(F)F)c3)cc2)cc1")
-1
>>> discrete_label("Fc1ccc(-c2csc(Nc3cccc(Nc4nc(-c5ccc(F)cc5)cs4)c3)n2)cc1")
-1
>>> discrete_label("Cn1cc(-c2cc3nc(-c4c[nH]c5ccccc45)cc(N)n3n2)c2cc(Cl)ccc21")
1
>>> discrete_label("CC(C)(C)c1cc(/C=C2\\S/C(=N/c3ncn[nH]3)NC2=O)cc(C(C)(C)C)c1O")
-1

###

Recorded growth, one value per entry.
- System: MDA-MB-468 breast
- Assay Name: NCI-60 one-dose screen, 48 h (100 = growth as untreated, 0 = no growth, -100 = all killed)
- Protocol Conditions: 10 µM unless noted
Compounds without any hit were thinned out: in the full panel of roughly 83,000, 20% have a hit.
Readout Kind: growth (%)

>>> numeric_readout("Cc1ccccc1NC(=O)Oc1ccc(Cl)cc1C(=O)c1ccccc1")
88.2
>>> numeric_readout("CC(=O)O[C@H]1[C@H](CC#CC#CC[C@@H]2C[C@]3(C)[C@H]4CC=C5[C@H]6[C@@H](C)[C@H](C)CC[C@]6(C(=O)NCCCCCCCCN)CC[C@@]5(C)[C@]4(C)CC[C@H]3C(C)(C)[C@H]2OC(C)=O)C[C@]2(C)[C@H]3CC=C4[C@H]5[C@@H](C)[C@H](C)CC[C@]5(C(=O)NCCCCCCCCN)CC[C@@]4(C)[C@]3(C)CC[C@H]2C1(C)C")
73.5
>>> numeric_readout("COc1ccc(/C(=C2/O[C@@H]([C@H]3COC(C)(C)O3)[C@H]3OC(C)(C)O[C@@H]23)c2cc(OC)c(OC)c(OC)c2)cc1O")
113

###

- Tested on: MDA-MB-468 breast
- Assay Name: NCI-60 one-dose screen, 48 h
- Protocol Conditions: 10 µM unless noted
Compounds without any hit were thinned out: in the full panel of roughly 83,000, 20% have a hit. The source made the active and inactive calls. Rule for the calls: active = growth percent below 10; inactive = the rest.
Labels: 1 (yes) = active, 0 (no) = inactive

>>> discrete_label("FCc1ncc(-c2ccc(C(F)(F)F)cc2)c(NC2CCCCCC2)n1")
"0 (no)"
>>> discrete_label("CCCCC(=O)Nc1ncc(Cc2ccccc2Cl)s1")
"0 (no)"
>>> discrete_label("COc1cc2c(Nc3ccc(NC(=O)Nc4ccc(Cl)c(C(F)(F)F)c4)c(Cl)c3)ncnc2cc1OCCCN1CCN(C)CC1")
"1 (yes)"
>>> discrete_label("NNC(=O)c1sc2nc(-c3cnccn3)cc(-c3cccs3)c2c1N")
"0 (no)"
>>> discrete_label("Cc1ccc(-n2nc3n(/c2=N\\C(=O)NS(=O)(=O)c2ccc(C)cc2)CCN3C2=NCCN2)cc1")
"0 (no)"
>>> discrete_label("CCOC(=O)c1ccc(NC(C)=O)o1")
"0 (no)"
>>> discrete_label("Cn1cc(-c2nn3cc(-c4cccs4)nc3s2)c2cc(F)ccc21")
"0 (no)"
>>> discrete_label("COc1cc(NC(=O)c2cc(O)c(CC=C(C)C)c(O)c2)cc2c1O[C@]1(C)CC[C@@H](O)C(C)(C)[C@H]1C2")
"0 (no)"
>>> discrete_label("CSc1nc(NCCCNc2ccnc3cc(Cl)ccc23)cc(-c2ccccc2)n1")
"0 (no)"
>>> discrete_label("COc1cc2c(=O)n(CCN(C)C)c3c4cc5c(cc4ccc3c2cc1OC)OCO5")
"1 (yes)"
>>> discrete_label("Nc1cc(N)c(N=Nc2ccc(S(=O)(=O)O)cc2)cc1N=Nc1ccc(-c2ccc(N=Nc3ccc(O)c(C(=O)O)c3)cc2)cc1")
"0 (no)"
>>> discrete_label("COC(=O)[C@]12CC[C@@H](C)[C@H](C)[C@@H]1C1=CC[C@@H]3[C@@]4(C)C(c5ncon5)=C[C@@](C)(CO)C4=CC[C@@]3(C)[C@]1(C)CC2")
"1 (yes)"
>>> discrete_label("COc1cc(NCCCCC(C)N)c2nccc(C)c2c1 (stereo not given)")
"0 (no)"
>>> discrete_label("CCNC(=O)Oc1ccc(/C(=C(\\C)c2ccc(Cl)cc2)c2ccc(OCCN3CCCCC3)cc2)cc1")
"0 (no)"
>>> discrete_label("COc1cccc2c1O/C(=C\\c1c([N+](=O)[O-])ncn1C)C2=O")
"0 (no)"
>>> discrete_label("COc1cc(/C=C\\C(C)=N\\Nc2ccccc2)ccc1O")
"0 (no)"
>>> discrete_label("CC(=O)OCC1CCCO1 (stereo not given)")
"0 (no)"
>>> discrete_label("CCN(CC)CCC(C(=O)O)(c1ccccc1)c1ccccc1")
"0 (no)"
>>> discrete_label("CN1CC[C@@H]2[C@@]3(C)CC[C@H](O)C(C)(C)[C@@H]3CC[C@@]2(C)[C@]2(C)CC[C@@]3(CO)CCC(C)(C)C[C@@H]3C12 (stereo not given in full)")
"0 (no)"
>>> discrete_label("O=c1c2ccccc2sc2c(N3CCCC3)nc3ccccc3c12")
"0 (no)"

###

- System: MDA-MB-468 breast
- Assay Name: NCI-60 one-dose screen, 48 h
- Protocol Conditions: 10 µM unless noted
Compounds without any hit were thinned out: in the full panel of roughly 83,000, 20% have a hit. Active and inactive are the calls of the source. The calls were made as follows: active = growth percent below 10; inactive = the rest.
Labels: YES for active, NO for inactive

>>> discrete_label("CC1(C)CC(=O)C2=C(C1)C(c1ccc(Cl)cc1)n1ncc(C#N)c1N2 (stereo not given)")
"NO"
>>> discrete_label("CC(C)=CCNc1ncnc2c1ncn2C1OC(CO)C(O)C1O (stereo not given)")
"YES"
>>> discrete_label("CC/C=C\\C[C@@H](O)C/C=C1/C(=O)C=C[C@H]1C/C=C\\CCCC(=O)OC")
"NO"
>>> discrete_label("N/C(=N\\C(N)=N\\c1nc2ccccc2s1)c1ccnc(Cl)c1")
"NO"
>>> discrete_label("CC(C)C1=NOC(=O)C1=Cc1cn(-c2cccnc2)nc1-c1ccccc1")
"NO"

###

Recorded growth, one value per entry.
- System: MDA-MB-468 breast
- Assay Name: NCI-60 one-dose screen, 48 h (100 = growth as untreated, 0 = no growth, -100 = all killed)
- Protocol Conditions: 10 µM unless noted
About 83,000 compounds went through this panel and 20% of them were active in at least one assay; those are over-represented in the sample as a whole.
Readout Kind: growth (%)

>>> numeric_readout("c1ccc(CCn2nnc3c(Nc4ccc(N5CCOCC5)cc4)ncnc32)cc1")
76
>>> numeric_readout("CC12CCC(CC1)C(C)(C)O2")
108
>>> numeric_readout("CCN1CCN(c2cc(C(=O)Nc3nc(-c4cc(OC)c(OC)c(OC)c4)cs3)cc(C(F)(F)F)c2)CC1")
84.8
>>> numeric_readout("O=C1c2ccc3c4ccc5c6c(ccc(c7ccc(c2c37)C(=O)N1CCC[P+](c1ccccc1)(c1ccccc1)c1ccccc1)c64)C(=O)N(CCC[P+](c1ccccc1)(c1ccccc1)c1ccccc1)C5=O")
-2.38

###

- Test system: MDA-MB-468 breast
- Assay Name: NCI-60 one-dose screen, 48 h (100 = growth as untreated, 0 = no growth, -100 = all killed)
- Protocol Conditions: 10 µM unless noted
Compounds without any hit were thinned out: in the full panel of roughly 83,000, 20% have a hit.
Label Not satisfied if growth falls below 90%; label Satisfied in every other case.

>>> discrete_label("COC(=O)c1ccc(=O)oc1")
"Satisfied"
>>> discrete_label("C=C1C(=O)O[C@H]2[C@H]1CC/C(COC(=O)NCc1ccc(Cn3c(=O)sn(CCCI)c3=O)cc1)=C\\CC[C@@]1(C)O[C@@H]21")
"Not satisfied"
>>> discrete_label("O=C(NCc1cn(Cc2cccc(Oc3ccccc3)c2)nn1)c1cccnc1Nc1ccc(F)cc1")
"Not satisfied"
>>> discrete_label("Cc1ccc2c(-c3cc(-c4ccccc4)nc(N)c3C#N)cc(=O)oc2c1")
"Satisfied"
>>> discrete_label("CCOC(=O)c1c(C)oc2ncnc(N3CCN(C(=O)COc4ccc(C(C)(C)C)cc4)CC3)c12")
"Not satisfied"
>>> discrete_label("O=C(NNc1nc2cc(F)cc(F)c2n2cccc12)c1ncccn1")
"Not satisfied"
>>> discrete_label("CCCCc1ccc(C(O)(CCN2CC3CCC(CC3)C2)c2ccccc2)cc1 (stereo not given)")
"Satisfied"
>>> discrete_label("COc1ccc(NC(=O)[C@H](C)N)cc1C(=O)Nc1cccc(-c2cc(=O)c3c(OC)c(OC)c(OC)cc3o2)c1")
"Not satisfied"
>>> discrete_label("CCOC(=O)c1ccc(NC2=C(Cl)C(=O)c3nc(C)ccc3C2=O)cc1")
"Not satisfied"
>>> discrete_label("COc1cc(C2CC(=O)Nc3c2c(C)nn3-c2nc3ccccc3[nH]2)c(OC)c2c1OCO2 (stereo not given)")
"Not satisfied"
>>> discrete_label("CCCC(=O)NC(c1ccc2c(c1)OCO2)c1ccc2cccnc2c1O (stereo not given)")
"Not satisfied"
>>> discrete_label("Nc1c(Cl)cc(N=Nc2ccccc2)cc1Cl")
"Not satisfied"
>>> discrete_label("c1cc2[nH]ncc2cc1-c1nc2ccc3[nH]ncc3c2c2c1CCCC2")
"Not satisfied"
>>> discrete_label("Cc1ccc(/C=C(\\C#N)n2nnc3cc(Cl)c(Cl)cc32)cc1")
"Not satisfied"
>>> discrete_label("CC(O)COc1ccc(-c2ccccc2)cc1 (stereo not given)")
"Satisfied"
>>> discrete_label("COc1cc(/C=C/C(=O)c2ccc(NC(=O)CSc3nnc(-c4ccc(-c5nc6ccc(Cl)cc6[nH]5)cc4)o3)cc2)cc(OC)c1OC")
"Satisfied"
>>> discrete_label("O=C(Nc1cccc(-n2cc(-c3ccncc3)c(-c3ccc(O)c(Cl)c3)n2)c1)Nc1ccc(Cl)c(C(F)(F)F)c1")
"Not satisfied"
>>> discrete_label("CC(C)(C)n1cc(-c2ccnc(NCCNS(=O)(=O)c3ccc(F)cc3)c2)c(-c2cccc(O)c2)n1")
"Not satisfied"
